Entries and their measured kon follow.
# Experimental System: T1, human PCSK9 (human, UniProt Q8NBP7 31-692)
# T1 construct: Secreted PCSK9 is autocleaved into prodomain and mature chain, and a His-tag is named for the HEK293 constructs; also called hPCSK9; proprotein convertase subtilisin-kexin type 9
# T1 sequence (Q8NBP7 31-692 limits assumed): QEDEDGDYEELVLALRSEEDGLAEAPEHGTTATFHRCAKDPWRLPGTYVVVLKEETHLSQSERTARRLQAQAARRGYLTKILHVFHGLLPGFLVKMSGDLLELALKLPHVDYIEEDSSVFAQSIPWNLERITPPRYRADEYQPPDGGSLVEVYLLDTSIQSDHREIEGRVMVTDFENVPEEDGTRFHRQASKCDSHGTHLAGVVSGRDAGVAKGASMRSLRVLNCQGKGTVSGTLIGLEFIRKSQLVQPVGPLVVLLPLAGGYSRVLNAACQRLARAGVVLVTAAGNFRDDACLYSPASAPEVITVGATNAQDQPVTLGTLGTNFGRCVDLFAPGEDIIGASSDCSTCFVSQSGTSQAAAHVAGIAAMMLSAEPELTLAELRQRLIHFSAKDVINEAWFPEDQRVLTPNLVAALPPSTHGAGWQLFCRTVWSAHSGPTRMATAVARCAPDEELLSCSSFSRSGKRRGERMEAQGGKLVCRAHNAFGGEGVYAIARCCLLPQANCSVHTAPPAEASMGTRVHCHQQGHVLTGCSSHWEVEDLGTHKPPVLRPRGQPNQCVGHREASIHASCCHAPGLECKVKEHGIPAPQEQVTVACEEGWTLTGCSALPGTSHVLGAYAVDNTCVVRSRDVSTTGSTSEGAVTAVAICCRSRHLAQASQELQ
# Assay Details: SPR (Biacore), IgG captured by anti-human IgG, PCSK9 injected at 3.75-60 nM

| Binder | kon / M⁻¹ s⁻¹ |
| --- | --- |
| AX212 IgG (antibody, V domains shown, Purified IgG) VH: QVQLLESGGGLVQPGGSLRLSCKASGYTFSSYSFSWVRQAPGKGLEWIGYIDPGSGGTKYNQKFQGKATISRDNSKNTLYLQMNSLRAEDTAVYYCARQRVGYSLDYWGQGTLVTVSS VL: EIVLTQSPATLSLSPGERATITCRASQYVGSYLNWYQQKPGQAPRLLIYDASNRATGIPARFSGSGSGTDFTLTISSLEPEDFAVYYCQVWDSSPPVVFGGGTKVEIK | 153000 |
| AX137 IgG (antibody, V domains shown, Purified IgG) VH: EVQLLESGGGLVQPGGSLRLSCKASGYTFSSYGMYWVRQAPGKGLEWIGWIDPGSGGTKYNEKFKGKATISRDNSKNTLYLQMNSLRAEDTAVYYCARERYGYYFDYWGQGTLVTVSS VL: EIVLTQSPATLSLSPGERATITCRASQYIGSYLNWYQQKPGQAPRLLIYDASNRATGIPARFSGSGSGTDFTLTISSLEPEDFAVYYCQAWDSSPPVVFGGGTKVEIK | 333000 |

Data credit: patent US20120213794A1
